Measured pIC50, listed per entry for reference.
- Tested on: Staphylococcus aureus
- measurement.description: Antibiofilm activity against Staphylococcus aureus ATCC 29213 after 24 hrs by crystal-violet stain based assay
- Assay type: functional
- condition.context: ATCC 29213, 24 h
Scale: pIC50 equals -log10([C]), with [C] in mol/L.

Use the examples below as a reference point.
> print(dat)
                            smiles.notation  reported
1     Cc1c(C(=O)Nc2ccccc2)cnn1-c1cccc(Cl)c1      3.77
2               CCOC(=O)c1cnn(-c2ccccc2)c1N      4.47
3       Cc1cc(C(=O)Nc2ccccc2)n(-c2ccccc2)n1      3.91
4  Cc1c(C(=O)Nc2ccccc2)cnn1-c1ccc([N+](=O)[O-])cc1      3.90
5   Cc1c(C(=O)Nc2ccccc2)cnn1-c1cc(Cl)ccc1Cl      4.28

Now, please, on to the next compound.
query: Short answer please: pIC50, Staphylococcus aureus, entry CCOC(=O)c1cn[nH]c1N
result: 4.08

* * *

Documented pIC50 across a set of molecules
- Tested on: Staphylococcus aureus
- measurement.description: Antibiofilm activity against Staphylococcus aureus ATCC 25923 after 24 hrs by safranin staining based assay
- Type: functional
- condition.context: ATCC 25923, 24 h
On this scale, pIC50 is minus log10 of a concentration expressed in M (mol/L).

Solved cases (2 shown):
> print(dat)
                            smiles.notation  reported
1  CCn1nc(C)cc1C(=O)/C(=N\Nc1cccc(Cl)c1)C(=O)O      4.70
2  CCOC(=O)/C(=N/Nc1cccc(C)c1)C(=O)c1cc(C)nn1CC      5.00

For the next question, use this molecule.
query: For CCOC(=O)/C(=N/Nc1ccccc1F)C(=O)c1cc(C)nn1CC , what is its reported pIC50?
result: 4.38

* * *

- Tested on: Staphylococcus aureus
- measurement.description: Antibiofilm activity against Staphylococcus aureus ATCC 6538 after 24 hrs by safranin staining based assay
- Assay type: functional
- condition.context: ATCC 6538, 24 h
measured.quantity: IC50 (µM)
Record the value in µM, omitting the unit from your answer.

Please review the following examples before continuing.
> print(dat)
                            smiles.notation          tested.system  reported
1  CCOC(=O)/C(=N/Nc1cccc(C)c1)C(=O)c1cc(C)nn1CC  Staphylococcus aureus        43
2  CCOC(=O)/C(=N/Nc1ccccc1F)C(=O)c1cc(C)nn1CC  Staphylococcus aureus       0.9

query: Could you share which IC50 value was measured for CCn1nc(C)cc1C(=O)/C(=N\Nc1cccc(Cl)c1)C(=O)O ?
result: 11

* * *

- System: Staphylococcus aureus
- measurement.description: Antibiofilm activity against Staphylococcus aureus ATCC 29213 after 24 hrs by crystal-violet stain based assay
- Assay type: functional
- condition.context: ATCC 29213, 24 h
measured.quantity: pIC50
Scale note: pIC50 = -log10(concentration in M).

See these solved cases before continuing.
> print(dat)
                             smiles.notation          tested.system  reported
 1  Cc1c(C(=O)Nc2ccccc2)cnn1-c1ccc(C(F)(F)F)cc1  Staphylococcus aureus      4.34
 2  CC(=O)/C(=C\NNc1cc(Cl)ccc1Cl)C(=O)Nc1ccccc1  Staphylococcus aureus      5.60
 3   CCOC(=O)c1cnn(-c2ccc(S(N)(=O)=O)cc2)c1N  Staphylococcus aureus      4.55
 4               CCOC(=O)c1cnn(-c2ccccn2)c1N  Staphylococcus aureus      4.51
 5  Cc1c(C(=O)Nc2ccccc2)cnn1-c1cccc([N+](=O)[O-])c1  Staphylococcus aureus      4.34
 6     Cc1c(C(=O)Nc2ccccc2)cnn1-c1cc(F)ccc1F  Staphylococcus aureus      4.05
 7                       CCOC(=O)c1cnn(C)c1N  Staphylococcus aureus      3.82
 8         Cc1c(C(=O)Nc2ccccc2)cnn1-c1ccccc1  Staphylococcus aureus      3.51
 9         Cc1cc(C(=O)Nc2ccccc2)nn1-c1ccccc1  Staphylococcus aureus      4.27
10                    CCOC(=O)c1c(C)n[nH]c1N  Staphylococcus aureus      4.21

Attention now shifts to the item below.
query: Need pIC50, item Cc1c(C(=O)Nc2ccccc2)cnn1-c1ccc(Cl)cc1
result: 4.42
